Value source: the FLAb antibody collection

# assay.procedure: patients with anti-drug antibodies; higher = more immunogenic
observable: patients with anti-drug antibodies (%)

>>> numeric_result("unnamed (protein) chain 1: QVQLVESGGGVVQPGRSLRLDCKASGITFSNSGMHWVRQAPGKGLEWVAVIWYDGSKRYYADSVKGRFTISRDNSKNTLFLQMNSLRAEDTAVYYCATNDDYWGQGTLVTVSS chain 2: EIVLTQSPATLSLSPGERATLSCRASQSVSSYLAWYQQKPGQAPRLLIYDASNRATGIPARFSGSGSGTDFTLTISSLEPEDFAVYYCQQSSNWPRTFGQGTKVEIK")
7.7
>>> numeric_result("unnamed (protein) chain 1: QVQLVQSGAEVKKPGASVKVSCKASGYTFTSYDINWVRQATGQGLEWMGWMNPNSGNTGYAQKFQGRVTMTRNTSISTAYMELSSLRSEDTAVYYCARDPYYYYYGMDVWGQGTTVTVSS chain 2: QSVLTQPPSVSAAPGQKVTISCSGSSSNIENNHVSWYQQLPGTAPKLLIYDNNKRPSGIPDRFSGSKSGTSATLGITGLQTGDEADYYCETWDTSLSAGRVFGGGTKLTVL")
0
